# METHOD_DESCRIPTION: SRB cell viability assay, hTERT-BJ1
# Assay type: cell-based
# CONDITION_DESCRIPTION: human, hTERT-BJ1 cells, cytotoxic starting at about, FIG. 1C, read-out: concentration at which cytotoxicity starts

COMPOUND	MCC
CCN(CC(=O)NCCN(C)C)C(=O)[C@@H](C)Oc1ccc2c(-c3ccc(NC(=O)CCCCCCCCCCC[P+](c4ccccc4)(c4ccccc4)c4ccccc4)cc3Cl)cc(=O)oc2c1.[Cl-] [Compound [I]]	~2500 nM

* * *

# METHOD_DESCRIPTION: In vivo chicken embryo toxicity assessment (CAM assay)
# CONDITION_DESCRIPTION: chicken, embryo; 250 μM; read-out: % Dead

COMPOUND	mortality at 250 µM (%)
CCN(CC(=O)NCCN(C)C)C(=O)[C@@H](C)Oc1ccc2c(-c3ccc(NC(=O)CCCCCCCCCCC[P+](c4ccccc4)(c4ccccc4)c4ccccc4)cc3Cl)cc(=O)oc2c1.[Cl-] [Compound [I]]	0

* * *

# METHOD_DESCRIPTION: In vivo chicken embryo toxicity assessment (CAM assay)
# CONDITION_DESCRIPTION: chicken, embryo; 250 μM; read-out: % Alive

COMPOUND	survival at 250 µM
CCN(CC(=O)NCCN(C)C)C(=O)[C@@H](C)Oc1ccc2c(-c3ccc(NC(=O)CCCCCCCCCCC[P+](c4ccccc4)(c4ccccc4)c4ccccc4)cc3Cl)cc(=O)oc2c1.[Cl-] [Compound [I]]	100%

* * *

# METHOD_DESCRIPTION: In vivo chicken embryo toxicity assessment (CAM assay)
# CONDITION_DESCRIPTION: chicken, embryo; 500 μM; read-out: % Alive

COMPOUND	UNIT_STRING	survival at 500 µM
CCN(CC(=O)NCCN(C)C)C(=O)[C@@H](C)Oc1ccc2c(-c3ccc(NC(=O)CCCCCCCCCCC[P+](c4ccccc4)(c4ccccc4)c4ccccc4)cc3Cl)cc(=O)oc2c1.[Cl-] [Compound [I]]	%	87.5

* * *

# Test system: MDA-MB-231 cells
# METHOD_DESCRIPTION: 3D anchorage independent growth (mammosphere formation) assay, MDA-MB-231
# Type: cell-based
# CONDITION_DESCRIPTION: Homo sapiens; MDA-MB-231 spheres; GraphPad Prism; FIG. 5B
# Description: Bar graphs are shown as the mean±SEM; t-test, two-tailed test: * P<0.05, ** P<0.01, **** P<0.0001. FIGS. 5A and 5B show IC50 curves for Compound [I] calculated using GraphPad Prism. […] 3D Anchorage Independent Growth Assay: This assay is also referred to as the mammosphere formation assay. […] 3D mammosphere formation efficiency (MFE) was analyzed in both the ATP-low and ATP-high sub-populations of cells. […]
pIC50: −log10 of the molar value.

COMPOUND	pIC50
CCN(CC(=O)NCCN(C)C)C(=O)[C@@H](C)Oc1ccc2c(-c3ccc(NC(=O)CCCCCCCCCCC[P+](c4ccccc4)(c4ccccc4)c4ccccc4)cc3Cl)cc(=O)oc2c1.[Cl-] [Compound [I]]	5.09

* * *

# METHOD_DESCRIPTION: In vivo chicken embryo toxicity assessment (CAM assay)
# CONDITION_DESCRIPTION: chicken, embryo; 100 μM; read-out: % Alive

COMPOUND	survival at 100 µM (%)
CCN(CC(=O)NCCN(C)C)C(=O)[C@@H](C)Oc1ccc2c(-c3ccc(NC(=O)CCCCCCCCCCC[P+](c4ccccc4)(c4ccccc4)c4ccccc4)cc3Cl)cc(=O)oc2c1.[Cl-] [Compound [I]]	100
